test: Intrinsic clearance in human liver microsomes; type: ADME, Microsome
Examples of compounds with documented microsomal CLint follow.
Express the result in µL/min/mg but write the number alone.

{"chemicalSmiles": "CC(C)(C)Cc1nc2cc(S(=O)(=O)Cc3ccccc3)ccc2n1CC1CC1", "microsomal CLint, µL/min/mg": 276}
{"chemicalSmiles": "CCS(=O)(=O)c1ccc2c(c1)nc(C1CCCC1)n2CC1CC1", "microsomal CLint, µL/min/mg": 11}
{"chemicalSmiles": "CCS(=O)(=O)c1ccc2c(c1)nc(C1(C)CC1)n2CC1CC1", "microsomal CLint, µL/min/mg": 8}
{"chemicalSmiles": "CN(C)CCS(=O)(=O)c1ccc2c(c1)nc(CC(C)(C)C)n2CC1CC1", "microsomal CLint, µL/min/mg": 79}

Then there is this compound:
Exercise: Can you look up the measured microsomal CLint of CCS(=O)(=O)c1ccc2c(c1)nc(C(C)(C)C)n2CCN(C)C for me?
Solution: 8

----------
target: Cannabinoid receptor 1 (Homo sapiens, UniProt P21554); experiment: Agonist activity at human CB1 receptor by functional assay
Sequence (P21554 whole entry): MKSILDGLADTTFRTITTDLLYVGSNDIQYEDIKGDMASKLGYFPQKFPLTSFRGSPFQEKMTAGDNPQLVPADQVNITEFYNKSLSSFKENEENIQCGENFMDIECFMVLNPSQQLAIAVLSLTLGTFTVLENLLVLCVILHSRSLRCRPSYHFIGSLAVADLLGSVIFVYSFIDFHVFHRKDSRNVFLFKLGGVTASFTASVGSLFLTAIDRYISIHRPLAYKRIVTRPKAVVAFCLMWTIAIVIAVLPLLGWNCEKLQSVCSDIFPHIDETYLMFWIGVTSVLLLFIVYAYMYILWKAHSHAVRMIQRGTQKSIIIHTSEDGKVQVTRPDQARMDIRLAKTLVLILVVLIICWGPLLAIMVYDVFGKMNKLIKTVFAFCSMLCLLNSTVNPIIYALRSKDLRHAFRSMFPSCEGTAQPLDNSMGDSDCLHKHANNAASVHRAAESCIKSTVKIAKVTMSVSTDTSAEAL
pEC50: −log10 of the molar value.
readoutType: pEC50

Exercise: Hi! What's the reported pEC50 for CCS(=O)(=O)c1ccc2c(c1)nc(C(C)(C)C)n2CC1CC1 on Cannabinoid receptor 1 (Homo sapiens, UniProt P21554)?
Solution: < 8.00

----------
The following compounds have recorded Ki on Cannabinoid receptor 1 (Homo sapiens, UniProt P21554).

Exercise: Hi! What's the reported Ki for CCS(=O)(=O)c1ccc2c(c1)nc(C(C)(C)C)n2CC1CC1 on Cannabinoid receptor 1 (Homo sapiens, UniProt P21554)?
Solution: > 20 µM

Exercise: Hi! What's the reported Ki for CN(C)CCn1c(CC(C)(C)C)nc2cc(S(=O)(=O)CC(C)(C)O)ccc21 on Cannabinoid receptor 1 (Homo sapiens, UniProt P21554)?
Solution: > 19.4 µM

Exercise: Hi! What's the reported Ki for CC(C)S(=O)(=O)c1ccc2c(c1)nc(CC(C)(C)C)n2CC1CC1 on Cannabinoid receptor 1 (Homo sapiens, UniProt P21554)?
Solution: > 10 µM

----------
assay: Volume of distribution in rat at 1 mg/kg, iv; type: ADME, organism-based; design: dose 1 mg/kg, route intravenous; conditions: in vivo
readoutType: Vd (L/kg)
Express the result in L/kg but write the number alone.

{"chemicalSmiles": "CCS(=O)(=O)c1ccc2c(c1)nc(C(C)(C)C)n2CC1CC1", "Vd, L/kg": 3.2}

Then there is this compound:
Exercise: Can you look up the measured Vd of CCS(=O)(=O)c1ccc2c(c1)nc(C(C)(C)C)n2C[C@@H]1CCCO1 for me?
Solution: 1

----------
target: Cannabinoid receptor 2 (Homo sapiens, UniProt P34972); assay: Agonist activity at human recombinant CB2 receptor expressed in CHO cells assessed as inhibition forskolin-induced cAMP release
Sequence (P34972 whole entry): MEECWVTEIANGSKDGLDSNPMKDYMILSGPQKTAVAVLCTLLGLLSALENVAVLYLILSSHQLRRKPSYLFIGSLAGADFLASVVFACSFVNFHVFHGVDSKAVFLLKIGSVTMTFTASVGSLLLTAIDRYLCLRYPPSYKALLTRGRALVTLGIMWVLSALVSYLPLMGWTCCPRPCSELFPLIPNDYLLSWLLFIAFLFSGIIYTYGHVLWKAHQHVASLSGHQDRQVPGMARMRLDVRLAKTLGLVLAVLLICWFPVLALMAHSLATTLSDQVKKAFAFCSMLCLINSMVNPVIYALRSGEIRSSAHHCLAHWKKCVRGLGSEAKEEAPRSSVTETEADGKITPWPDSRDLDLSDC
pEC50: −log10 of the molar value.
Returns 1 if the recorded pEC50 is greater than or equal to 8, and 0 otherwise.

Exercise: Hi team, for CCS(=O)(=O)c1ccc2c(c1)nc(C1CCCC1)n2CC1CC1 , is the recorded pEC50 at or above 8?
Solution: 0

Exercise: Hi team, for CC(C)S(=O)(=O)c1ccc2c(c1)nc(CC(C)(C)C)n2CC1CC1 , is the recorded pEC50 at or above 8?
Solution: 1

Exercise: Hi team, for CCS(=O)(=O)c1ccc2c(c1)nc(C1(C)CC1)n2CC1CC1 , is the recorded pEC50 at or above 8?
Solution: 0

Exercise: Hi team, for CCS(=O)(=O)c1ccc2c(c1)nc(CC(C)(C)C)n2CC1CC1 , is the recorded pEC50 at or above 8?
Solution: 1

Exercise: Hi team, for CC(C)(C)Cc1nc2cc(S(=O)(=O)CC(C)(C)O)ccc2n1CC1CC1 , is the recorded pEC50 at or above 8?
Solution: 1

Exercise: Hi team, for CCCc1nc2cc(S(=O)(=O)CC)ccc2n1CC1CC1 , is the recorded pEC50 at or above 8?
Solution: 0

Exercise: Hi team, for CCS(=O)(=O)c1ccc2c(c1)nc(C(C)(C)C)n2CC1CC1 , is the recorded pEC50 at or above 8?
Solution: 1
